Origin of measurements: PubChem BioAssay (NCI)

# Test system: SK-MEL-28 melanoma
# assay.overview: NCI-60 one-dose screen, 48 h (100 = growth as untreated, 0 = no growth, -100 = all killed)
# cond: 10 µM unless noted
Compounds without any hit were thinned out: in the full panel of roughly 83,000, 20% have a hit.
Give measured growth for each item. Keep answers brief.
Give the value, in units of %, as a plain number.

For the compound shown here, `Cc1nn(-c2ccccc2)c2ncnc(N/N=C/c3ccccc3)c12` , give the reported growth.
98.4

Item under review: CC(=O)N1C(=S)NC(=O)C1CC(C)C (stereo unspecified) . Reported growth?
101

For the compound shown here, `COc1cc(-c2nnc(SCc3ccc(O)c4ncccc34)n2-c2ccccc2)cc(OC)c1OC` , give the reported growth.
17.9

Need growth, item O=S(=O)(NC1c2ccccc2C[C@H]1O)c1ccc(Cl)cc1Cl (stereo partly specified)
102

growth for `C#C[C@]1(O)CC[C@H]2[C@@H]3CC=C4c5sc(-c6cccc(O)c6)nc5CC[C@]4(C)[C@H]3CC[C@@]21C` ?
-68.8

I'd like to know its growth. The compound in question is `Cc1cc(-c2ccc(Cl)cc2)n(Cc2nnc(SCC(=O)Nc3ccc(S(N)(=O)=O)cc3)n2-c2ccc([N+](=O)[O-])cc2)n1`
97.4

Data request, read-out growth, for `COc1cc(OC)cc(C(=O)Nc2cccc(C#Cc3cccc4[nH]nc(N)c34)c2)c1`
50.3

So what does the record say about growth for `C=CCn1c(SCC(=O)Nc2ccc(C(=O)/C=C/c3cc(OC)c(OC)c(OC)c3)cc2)nnc1-c1c[nH]c2ccccc12` ?
41.7

Give its growth value. Item: `COc1ccc2[nH]cc(/C=N/Nc3nc4ccccc4s3)c2c1`
83.1

# get_value(readout='growth', item= O=C1CC(=O)N2CSCN(C(c3ccccc3)c3nc4ncncc4[nH]3)C2=N1 (stereo unspecified) )
117

Value lookup for growth; key = `CC[C@H](CO)Nc1ccc2ncc(C#Cc3cncc(C(=O)Nc4ccc(CN5CCN(C)CC5)c(C(F)(F)F)c4)c3)n2n1`
-79.9
